Assay: Pharmacokinetics in beagles, single-dose regimen of TRQI (i.v.) or TRQC (oral), plasma LC-MS/MS
Format: in vivo, beagle
Details: both sexes, beagle, dog, plasma, iv; single i.v. dose of TRQI 0.5 mL/kg; mean of six beagles
The entries below are paired with their reported Tmax.
Response body: numeric value in min, unit text excluded.

Here is how some molecules turned out for Tmax.
O=C(O)[C@H]1O[C@@H](Oc2cc3oc(-c4ccccc4)cc(=O)c3c(O)c2O)[C@H](O)[C@@H](O)[C@@H]1O [Baicalin, baicalin] : 4.8
C[C@H](CCC(=O)O)[C@H]1CC[C@H]2[C@@H]3[C@@H](O)C[C@@H]4C[C@H](O)CC[C@]4(C)[C@H]3CC[C@]12C [Ursodeoxycholic acid, ursodeoxycholic acid] : 4.8
O=C(/C=C/c1ccc(O)c(O)c1)O[C@@H]1C[C@](O)(C(=O)O)C[C@@H](O)[C@H]1O [Chlorogenic acid, chlorogenic acid] : 7.8

Would you kindly look at the next entry?
## Task For the molecule C[C@H](CCC(=O)O)[C@H]1CC[C@H]2[C@@H]3[C@H](O)C[C@@H]4C[C@H](O)CC[C@]4(C)[C@H]3CC[C@]12C [Chenodeoxycholic acid, chenodeoxycholic acid] , what Tmax is on record?
## Result 64.2

###

Assay: Stability of analytes in dog plasma (QC samples)
Type: in vitro ADME
Conditions: n = 3, low QC: nominal 4 ng/mL baicalin, 20 ursodeoxycholic acid, 2 chenodeoxycholic acid and chlorogenic acid
Measurement kind: Short-term stability (6 h at room temperature) Mean ± S.D concentration (ng/mL)
A number alone suffices; assume ng/mL.

C[C@H](CCC(=O)O)[C@H]1CC[C@H]2[C@@H]3[C@@H](O)C[C@@H]4C[C@H](O)CC[C@]4(C)[C@H]3CC[C@]12C : 19.38
C[C@H](CCC(=O)O)[C@H]1CC[C@H]2[C@@H]3[C@H](O)C[C@@H]4C[C@H](O)CC[C@]4(C)[C@H]3CC[C@]12C : 1.77
O=C(/C=C/c1ccc(O)c(O)c1)O[C@@H]1C[C@](O)(C(=O)O)C[C@@H](O)[C@H]1O : 1.98

## Task For the molecule O=C(O)[C@H]1O[C@@H](Oc2cc3oc(-c4ccccc4)cc(=O)c3c(O)c2O)[C@H](O)[C@@H](O)[C@@H]1O , what Short-term stability (6 h at room temperature) Mean ± S.D concentration is on record?
## Result 4.01

###

Experiment: Pharmacokinetics in beagles, single-dose regimen of TRQI (i.v.) or TRQC (oral), plasma LC-MS/MS
Assay type: in vivo, beagle
Details: male, beagle, dog, plasma, po, 0.09 g/kg, single TRQCs 0.09 g/kg; beagle No 3; read-out: AUC0–24 h
Listing: AUC(0-t) of selected molecules
I only need the number, in ng·h/mL, no unit after it.

Here are 3 molecules together with their reported answers.
O=C(/C=C/c1ccc(O)c(O)c1)O[C@@H]1C[C@](O)(C(=O)O)C[C@@H](O)[C@H]1O : 33.2
O=C(O)[C@H]1O[C@@H](Oc2cc3oc(-c4ccccc4)cc(=O)c3c(O)c2O)[C@H](O)[C@@H](O)[C@@H]1O : 11.8
C[C@H](CCC(=O)O)[C@H]1CC[C@H]2[C@@H]3[C@@H](O)C[C@@H]4C[C@H](O)CC[C@]4(C)[C@H]3CC[C@]12C : 4590

## Task I'd like to know its AUC(0-t). The molecule in question is C[C@H](CCC(=O)O)[C@H]1CC[C@H]2[C@@H]3[C@H](O)C[C@@H]4C[C@H](O)CC[C@]4(C)[C@H]3CC[C@]12C
## Result 421
